Experiment: pharmacokinetic study
Format: in vivo
Conditions: read-out: mean Cmax; mice, IP 3 mg/kg, n=3
MEASUREMENT NAME: Cmax (nM)
Write down the numeric answer in nM and omit the unit.

Query: Please report Cmax for the following molecule: CCC(=O)N1CCOc2c(cc(-c3ccc(OC)c(OC)c3)cc2OC[C@H]2CCCN(C)C2)C1 [I-CBP112]
Reply: 1260

* * *

Target: BRD4(1) (Homo sapiens)
MEASUREMENT NAME: Kd (µM)
Write down the numeric answer in µM and omit the unit.

Query: Provide Kd, system BRD4(1) (Homo sapiens), entry "CCC(=O)N1CCOc2c(cc(-c3ccc(OC)c(OC)c3)cc2OC[C@H]2CCCN(C)C2)C1"
Reply: 5.6

Values were extracted from paper PMC4948672.
